Test system: MIA PaCa-2
Experiment: Antiproliferative activity against human MIA PaCa-2 cells assessed as inhibition of cell growth incubated for 48 hrs by propidium iodide staining based fluorometer assay
Type: functional
Settings: MIA PaCa-2, 48 h
pIC50: −log10 of the molar value.
observed_property: pIC50

(1) COc1cccc(/C=C2\COC/C(=C\c3cccc(OC)c3Cl)C2=O)c1Cl
(2) COc1ccc(/C=C2\COC/C(=C\c3ccc(OC)c(OC)c3Cl)C2=O)c(Cl)c1OC
(3) COc1ccc2c(c1)CC/C(=C\c1ccc(OC)c(OC)c1Cl)C2=O
Hey, can you sort those molecules up there by pIC50, smallest first? I'd appreciate it if you listed the labels in the requested order.
1, 2, 3
(1: 5.06, 2: 5.28, 3: 5.64)

(A) COc1ccc(OC)c2c1CC/C(=C\c1ccc(OC)c(OC)c1Cl)C2=O
(B) COc1ccc(/C=C2\CC(C(C)C)C/C(=C\c3ccc(OC)c(OC)c3Cl)C2=O)c(Cl)c1OC (centres undefined)
(C) COc1cccc(/C=C2\CCc3c(OC)ccc(OC)c3C2=O)c1Cl
(D) CCN(CC)CCON=C1/C(=C/c2cc(OC)c(OC)c(OC)c2Br)CN(C)C/C1=C\c1cc(OC)c(OC)c(OC)c1Br
List these items ordered by pIC50, big to small. I'd appreciate it if you listed the labels in the requested order.
D, A, C, B
(D: 7.10, A: 5.41, C: 5.17, B: 4.93)

* * *

Test: Cytotoxicity against human MCF-10A cells assessed as cell viability incubated for 96 hrs by MTT assay
Type: toxicity, cell-based
Parameters: concentration or dose not given beside the values
Conditions: read-out: Activity
observed_property: viability at 96 h (%)
Please state the figure in %; there is no need to write the unit.

Sample records with viability at 96 h:
[[record]]
compound = "COc1cccc(/C=C2\\CCc3ccc([N+](=O)[O-])cc3C2=O)c1Cl"
reported_value = 95

[[record]]
compound = "COc1cccc(/C=C2\\CNC/C(=C\\c3cccc(OC)c3Cl)C2=O)c1Cl"
reported_value = 94

[[record]]
compound = "COc1cc(/C=C2\\CCc3ccc(F)cc3C2=O)c(Br)c(OC)c1OC"
reported_value = 93

[[record]]
compound = "COc1cc(/C=C2\\CCc3c(O)cccc3C2=O)c(Br)c(OC)c1OC"
reported_value = 93

[[record]]
compound = "COc1cc(/C=C2\\CCc3ccccc3C2=O)c(Br)c(OC)c1OC"
reported_value = 94

[[record]]
compound = "COc1ccc(OC)c2c1CC/C(=C\\c1cc(OC)c(OC)c(OC)c1Br)C2=O"
reported_value = 91

[[record]]
compound = "COc1cc(/C=C2\\CC(C)C/C(=C\\c3cc(OC)c(OC)c(OC)c3Br)C2=O)c(Br)c(OC)c1OC (stereo unspecified)"
reported_value = 91

[[record]]
compound = "COc1cccc(/C=C2\\CCc3ccc(Cl)cc3C2=O)c1Cl"
reported_value = 94


What the record says about COc1cc(/C=C2\CNC/C(=C\c3cc(OC)c(OC)c(OC)c3Br)C2=O)c(Br)c(OC)c1OC : viability at 96 h is 96

What the record says about COc1cc(/C=C2\CC(C)C/C(=C\c3cc(OC)c(OC)c(OC)c3Br)C2=NO)c(Br)c(OC)c1OC (stereo unspecified) : viability at 96 h is 98

What the record says about COc1ccc(/C=C2\CCC/C(=C\c3ccc(OC)c(OC)c3Cl)C2=O)c(Cl)c1OC : viability at 96 h is 90

What the record says about COc1cc2c(cc1OC)C(=N/O)/C(=C/c1cc(OC)c(OC)c(OC)c1Br)CC2 : viability at 96 h is 92

What the record says about COc1ccc2c(c1)CC/C(=C\c1cccc(OC)c1Cl)C2=O : viability at 96 h is 95

What the record says about COc1cc(/C=C2\CCc3c(O)cccc3\C2=N\O)c(Br)c(OC)c1OC : viability at 96 h is 90
